Value source: ChEMBL document CHEMBL1131265

target: Serine protease 1 (Homo sapiens); assay: Compound was tested for inhibition of trypsin.
Sequence (P07477 whole entry): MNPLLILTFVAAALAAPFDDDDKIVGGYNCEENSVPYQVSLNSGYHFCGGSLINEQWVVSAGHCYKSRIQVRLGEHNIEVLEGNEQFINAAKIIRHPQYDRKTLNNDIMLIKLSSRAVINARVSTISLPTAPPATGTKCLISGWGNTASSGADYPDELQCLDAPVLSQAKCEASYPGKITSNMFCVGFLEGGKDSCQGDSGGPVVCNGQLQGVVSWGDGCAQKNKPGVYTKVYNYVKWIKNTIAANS
outcome.measure: Ki (µM)
State just the number; it will be interpreted in µM.

compound_smiles=N=C(N)c1ccc(N2CCCCN(c3cccc(C(=N)N)c3)C2=O)cc1 unit_abbreviation=µM recorded_number=0.12

Note: attention shifts to another entry.
Query string: Requested read-out: Ki. Entry: N=C(N)c1cccc(N2CCCCN(C3CCN(Cc4ccccc4)CC3)C2=O)c1
Result string: 0.282

###

target: UniProtKB P00734
outcome.measure: Ki (µM)
Numeric only. Scale: µM

compound_smiles=N=C(N)c1cccc(N2CCN(C3CCN(Cc4ccccc4)CC3)C2=O)c1 outcome_measure=Ki recorded_number=11

--- query ---
Query string: Request - read-out Ki | tested on UniProtKB P00734 | compound N=C(N)c1cccc(N2CCCCN(C3CCN(Cc4ccccc4)CC3)C2=O)c1
Result string: 2
